assay.target: Syk (Homo sapiens, UniProt P43405)
Construct: purchased Carna Biosciences
experimental.details: Syk HTRF assay
Type: biochemical
measurement.parameters: IC50 activity level, read-out: Activity Level
Measured IC50, listed per entry.

For orientation, consider the following solved cases.
>>> result("C[C@H](Cc1cccc2nc(Nc3ccccc3)nn12)C(N)=O [Example 460]")
"1000 to 10000 nM"
>>> result("CNC(=O)c1ccc(Nc2nc3cccc(-c4ccc5[nH]ncc5c4)n3n2)cc1 [Example 426]")
"0.005 to 250 nM"
>>> result("NCCN1Cc2cc(-c3cccc4nc(Nc5ccccc5)nn34)ccc2C1=O [Example 494]")
"500 to 1000 nM"

For this compound ( c1ccc(Nc2nc3cccc(-c4ccc5nc(CN6CCCC6)[nH]c5c4)n3n2)cc1 [Example 428] ), measured IC50 is 0.005 to 250 nM

For this compound ( CN(c1cccc2nc(Nc3ccc4c(cnn4C)c3)nn12)C1CCOCC1 [Example 542] ), measured IC50 is 0.005 to 250 nM

For this compound ( O[C@@H]1CCC[C@@H]1Nc1cccc2nc(Nc3ccc(C(F)(F)F)cc3)nn12 [Example 406] ), measured IC50 is 500 to 1000 nM
